These entries and their values trace back to patent US20120302607A1.

Protein target, amino acids: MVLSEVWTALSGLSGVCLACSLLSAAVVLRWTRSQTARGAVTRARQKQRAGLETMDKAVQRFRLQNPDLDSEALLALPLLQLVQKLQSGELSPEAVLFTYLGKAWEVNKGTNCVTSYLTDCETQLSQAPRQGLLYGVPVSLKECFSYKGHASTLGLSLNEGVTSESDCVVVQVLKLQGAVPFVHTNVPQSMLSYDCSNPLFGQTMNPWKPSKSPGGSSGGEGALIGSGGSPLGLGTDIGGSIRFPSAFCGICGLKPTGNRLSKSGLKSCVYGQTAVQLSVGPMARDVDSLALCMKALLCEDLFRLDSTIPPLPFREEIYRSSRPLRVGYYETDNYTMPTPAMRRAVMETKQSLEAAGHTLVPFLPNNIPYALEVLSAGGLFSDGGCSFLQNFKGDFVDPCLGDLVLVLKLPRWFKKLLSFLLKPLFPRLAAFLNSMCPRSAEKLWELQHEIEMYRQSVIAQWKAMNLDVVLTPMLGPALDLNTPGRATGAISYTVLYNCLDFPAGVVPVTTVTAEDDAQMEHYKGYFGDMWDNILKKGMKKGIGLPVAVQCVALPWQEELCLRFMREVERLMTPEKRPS
pIC50: −log10 of the molar value.
outcome_measure: pIC50

[
  {
    "molecule": "N#Cc1coc(C(=O)CCCCCCc2ccccc2)n1",
    "pIC50": 7.70
  },
  {
    "molecule": "O=C(CCCCCCc1ccccc1)c1nc(-c2ccncc2)co1",
    "pIC50": 6.85
  }
]

A. O=C(O)c1cnc(C(=O)CCCCCCc2ccccc2)o1 [Compound 5d, reference compound]
B. O=C(CCCCCCc1ccccc1)c1nc(C(F)(F)F)co1
Q: Lab notebook, comparison: A versus B , higher pIC50 goes to which? Respond using the label that marks the chosen record.
Ans: B
